Biological target: rα3β4 nAChRs (Rattus norvegicus, UniProt P04757+P12392)
Sequence (P04757 26-499 limits assumed): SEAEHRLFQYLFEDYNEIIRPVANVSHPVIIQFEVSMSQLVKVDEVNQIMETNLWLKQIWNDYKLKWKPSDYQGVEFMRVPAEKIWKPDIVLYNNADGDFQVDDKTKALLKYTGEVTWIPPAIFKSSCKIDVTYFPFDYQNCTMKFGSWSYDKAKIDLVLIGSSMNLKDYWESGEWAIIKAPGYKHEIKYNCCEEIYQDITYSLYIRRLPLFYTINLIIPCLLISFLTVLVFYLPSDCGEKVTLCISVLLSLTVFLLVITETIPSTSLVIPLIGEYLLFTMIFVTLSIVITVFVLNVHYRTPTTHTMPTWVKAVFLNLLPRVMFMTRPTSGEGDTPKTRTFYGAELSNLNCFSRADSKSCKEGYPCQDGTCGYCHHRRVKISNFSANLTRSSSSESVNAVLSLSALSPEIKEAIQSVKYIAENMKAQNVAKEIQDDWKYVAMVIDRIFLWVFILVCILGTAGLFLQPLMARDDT
Sequence (P12392 21-495 limits assumed): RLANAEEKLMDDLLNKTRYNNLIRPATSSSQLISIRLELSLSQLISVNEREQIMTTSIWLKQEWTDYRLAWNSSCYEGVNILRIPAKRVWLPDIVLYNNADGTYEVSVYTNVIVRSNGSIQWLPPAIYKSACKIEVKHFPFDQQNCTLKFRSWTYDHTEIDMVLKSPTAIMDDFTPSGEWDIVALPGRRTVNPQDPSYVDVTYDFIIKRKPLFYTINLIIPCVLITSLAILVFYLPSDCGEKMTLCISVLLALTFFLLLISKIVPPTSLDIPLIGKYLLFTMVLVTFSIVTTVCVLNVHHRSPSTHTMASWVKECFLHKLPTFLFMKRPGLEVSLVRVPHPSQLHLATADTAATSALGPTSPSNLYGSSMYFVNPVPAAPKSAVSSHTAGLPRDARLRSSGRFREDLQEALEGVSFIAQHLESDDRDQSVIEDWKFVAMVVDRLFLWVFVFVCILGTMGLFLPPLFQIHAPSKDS
Experiment: cell-based
Where a SMILES comes first, the peptide text is derived from it.
quantity.kind: pIC50
Answer as the number alone; pIC50 is minus log10 of concentration in mol/L.

Item: CC[C@H](C)[C@@H]1NC(=O)[C@@H]2CCCN2C(=O)[C@H](C)NC(=O)[C@H](CO)NC(=O)[C@H](CCSC)NC(=O)[C@H](C)NC(=O)[C@H](CO)NC(=O)[C@@H]2CSSC[C@H](NC(=O)CN)C(=O)N[C@@H](CSSC[C@@H](C(N)=O)NC1=O)C(=O)N[C@@H](CO)C(=O)N[C@@H](Cc1c[nH]cn1)C(=O)N1CCC[C@H]1C(=O)N[C@@H](C(C)C)C(=O)N2 [[+13A]TxID] (HELM PEPTIDE1{G.C.C.S.H.P.V.C.S.A.M.S.A.P.I.C.[am]}$PEPTIDE1,PEPTIDE1,2:R3-8:R3|PEPTIDE1,PEPTIDE1,3:R3-16:R3$$$V2.0) | pIC50: 8.00

Item: CC[C@H](C)[C@@H]1NC(=O)[C@H](C)NC(=O)[C@@H]2CCCN2C(=O)[C@H](CO)NC(=O)[C@H](CCSC)NC(=O)[C@H](C)NC(=O)[C@H](CO)NC(=O)[C@@H]2CSSC[C@H](NC(=O)CN)C(=O)N[C@@H](CSSC[C@@H](C(N)=O)NC1=O)C(=O)N[C@@H](CO)C(=O)N[C@@H](Cc1c[nH]cn1)C(=O)N1CCC[C@H]1C(=O)N[C@@H](C(C)C)C(=O)N2 [[+14A]TxID] (HELM PEPTIDE1{G.C.C.S.H.P.V.C.S.A.M.S.P.A.I.C.[am]}$PEPTIDE1,PEPTIDE1,2:R3-8:R3|PEPTIDE1,PEPTIDE1,3:R3-16:R3$$$V2.0) | pIC50: 7.43

Item: CC[C@H](C)[C@@H]1NC(=O)[C@@H]2CCCN2C(=O)[C@H](CO)NC(=O)[C@H](C)NC(=O)[C@H](CCSC)NC(=O)[C@H](C)NC(=O)[C@H](CO)NC(=O)[C@@H]2CSSC[C@H](NC(=O)CN)C(=O)N[C@@H](CSSC[C@@H](C(N)=O)NC1=O)C(=O)N[C@@H](CO)C(=O)N[C@@H](Cc1c[nH]cn1)C(=O)N1CCC[C@H]1C(=O)N[C@@H](C(C)C)C(=O)N2 [[+12A]TxID] (HELM PEPTIDE1{G.C.C.S.H.P.V.C.S.A.M.A.S.P.I.C.[am]}$PEPTIDE1,PEPTIDE1,2:R3-8:R3|PEPTIDE1,PEPTIDE1,3:R3-16:R3$$$V2.0) | pIC50: 7.31
